Below, each entry is listed alongside its reported ratio of 11 nM antibody binding signal (RLU) to isotype control.
Biological target: full length human MSR1 with a C-terminal Myc tag on HEK293.Myc.hMSR1 cells (human) (UniProt P21757)
Sequence (P21757 whole entry): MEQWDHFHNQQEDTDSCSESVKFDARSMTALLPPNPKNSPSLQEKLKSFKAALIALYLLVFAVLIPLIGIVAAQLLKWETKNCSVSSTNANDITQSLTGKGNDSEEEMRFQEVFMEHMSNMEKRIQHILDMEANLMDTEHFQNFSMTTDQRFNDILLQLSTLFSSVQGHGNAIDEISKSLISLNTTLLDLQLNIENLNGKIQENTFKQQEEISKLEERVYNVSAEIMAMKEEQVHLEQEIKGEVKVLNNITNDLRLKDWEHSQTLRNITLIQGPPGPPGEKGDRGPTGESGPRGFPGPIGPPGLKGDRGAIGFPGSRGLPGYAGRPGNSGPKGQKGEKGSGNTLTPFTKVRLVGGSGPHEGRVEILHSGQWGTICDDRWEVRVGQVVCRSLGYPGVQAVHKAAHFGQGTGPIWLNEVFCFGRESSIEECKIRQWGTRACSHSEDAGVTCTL
Assay: ECL cell binding, HEK293.Myc.hMSR1 cells
Respond using a number only.

Solved cases below.
Binder | Result Number
H1H21234N-N297Q (antibody, human IgG1, V domains shown) VH: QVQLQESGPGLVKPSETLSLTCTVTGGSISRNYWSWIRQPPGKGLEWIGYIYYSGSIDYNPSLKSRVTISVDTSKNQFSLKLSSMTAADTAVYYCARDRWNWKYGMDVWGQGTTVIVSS VL: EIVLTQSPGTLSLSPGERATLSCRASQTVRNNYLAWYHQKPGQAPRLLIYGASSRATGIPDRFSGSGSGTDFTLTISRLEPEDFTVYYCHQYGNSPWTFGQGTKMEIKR | 43
H1H21227N-N297Q (antibody, human IgG1, V domains shown) VH: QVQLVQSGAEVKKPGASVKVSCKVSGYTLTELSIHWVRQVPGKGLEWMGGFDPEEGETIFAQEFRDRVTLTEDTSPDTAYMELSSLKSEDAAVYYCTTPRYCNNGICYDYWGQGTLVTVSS VL: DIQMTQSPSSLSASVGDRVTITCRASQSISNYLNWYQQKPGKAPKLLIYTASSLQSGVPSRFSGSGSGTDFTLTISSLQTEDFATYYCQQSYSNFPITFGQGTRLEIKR | 37

We now examine a further binder.
Exam item: Give the measured ratio of 11 nM antibody binding signal (RLU) to isotype control of H2aM21229N (antibody, mouse IgG2a, V domains shown) VH: EVQLVESGGGLVKPGGSLRLSCAASGFTFSRYSMNWVRQAPGKGLEWVSSISSSSSYIYYGDTVKGRFTISRDNAKKSLYLQMNSLRAEDTAVYYCVRDRGQLVLYFDYWGQGTLVTVSS VL: DIQMTQSPASLSTSIRDRVTITCRASLSISSFLNWFQQRPGKAPKLLIYVASNLQSGVPSRFSDSGSGTDFTLTISSLQPEDFATYYCQQNYSTPPITFGQGTRLEIK .
Marked response: 78
